Biological target: Alpha-2A adrenergic receptor (Rattus norvegicus, UniProt P22909)
Sequence (P22909 whole entry): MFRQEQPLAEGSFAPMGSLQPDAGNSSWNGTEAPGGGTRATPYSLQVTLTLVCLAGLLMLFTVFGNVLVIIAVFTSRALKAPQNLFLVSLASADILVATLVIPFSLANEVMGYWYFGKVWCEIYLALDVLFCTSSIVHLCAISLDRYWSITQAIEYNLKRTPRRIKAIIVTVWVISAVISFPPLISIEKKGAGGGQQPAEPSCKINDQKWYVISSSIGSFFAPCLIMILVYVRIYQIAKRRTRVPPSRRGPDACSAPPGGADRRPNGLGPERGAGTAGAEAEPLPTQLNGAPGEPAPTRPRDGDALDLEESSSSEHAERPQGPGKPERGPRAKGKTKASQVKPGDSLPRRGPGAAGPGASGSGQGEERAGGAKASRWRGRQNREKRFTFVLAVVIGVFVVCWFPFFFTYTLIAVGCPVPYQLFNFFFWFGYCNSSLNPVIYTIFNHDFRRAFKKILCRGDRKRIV
observed property: Ki (µM)
All answers are understood in µM, so give the number only.

Qu. Please indicate Ki recorded for `Oc1ccc(N2CCN(Cc3cnn(-c4ccc(Cl)cc4)c3)CC2)cc1`
Ans. 6.45

Qu. Please indicate Ki recorded for `Clc1ccc(-n2cc(CN3CCN(c4ccccc4)CC3)cn2)cc1`
Ans. 2.49
